Reported cytotoxicity at 70.5 h values for the following compounds.
- assay summary: Human HepG2 cell viability assay in 384 well format
- Format: toxicity, cell-based
- Parameters: dose 125 nL, time 70.5 hour; concentration not given beside the values
- measurement parameters: HepG2 cells, read-out: Inhibition
Response body: numeric value in %, unit text excluded.

Observe how each entry below is paired with its result.
compound	reading
CC(C)NC(=O)C1CN(C(=O)Cc2ccccc2)CC12CCOCC2 (configuration not stated)	-13.2
Cc1cnc(N2CCC3(CC2)CC(NS(C)(=O)=O)CO3)nc1 (configuration not stated)	1.23
CCN(CC)C(=O)Nc1ccc(C(=O)N(C)C)c(C)c1	2.13

Ask: Query (compound): CCC(=O)N1CCc2onc(CNS(C)(=O)=O)c2C1 ; field requested: cytotoxicity at 70.5 h
Reply: 9.89

Ask: Moving on to the next compound: COc1cccc(CN2CCC(c3nccn3C(C)C)CC2)c1
Reply: -13.1

Ask: Moving on to the next compound: O=C(CC1=CCCCC1)NCc1ccnc(OC2CCOCC2)c1
Reply: -6.35

Ask: Moving on to the next compound: CC(C)(C)c1nc(CN2CCOC(Cn3cncn3)C2)cs1 (configuration not stated)
Reply: 1.47

Ask: Moving on to the next compound: CCO[C@@H]1CCN(C(=O)c2cnc(C)cn2)[C@@H]1Cc1cnn(C)c1
Reply: -11.6

Ask: Moving on to the next compound: Cc1nc(O)ccc1C(=O)NCc1ncccc1F
Reply: -2.33

Ask: Moving on to the next compound: COc1ccc2c(c1)C1(CCN(Cc3cnn(C)c3)CC1)N(C)CC2
Reply: -0.704

Ask: Moving on to the next compound: CC(C)NC(=O)C1CN(C(=O)N2CCCC2)CC12CCOCC2 (configuration not stated)
Reply: -1.86

Ask: Moving on to the next compound: CCOC(=O)c1ccc(CNC(=O)c2ccncc2Cl)o1
Reply: -7.26

###

- assay summary: Human HepG2 cell viability assay in 384 well format
- Assay type: toxicity, cell-based
- Design: dose 125 nL, time 70.5 hour; concentration not given beside the values
- measurement parameters: HepG2 cells, read-out: Inhibition
Reported cytotoxicity at 70.5 h values for the following compounds.
Response body: numeric value in %, unit text excluded.

Observe how each entry below is paired with its result.
compound	cytotoxicity at 70.5 h / %
CCc1c(C(=O)NC2CCS(=O)(=O)C2)cnn1-c1ccc(F)cc1 (configuration not stated)	-22.6
CCOCC(O)c1nc2c([nH]1)CC(C)(C)CNC2=O (configuration not stated)	-11.8
CCc1nsc(N2CCn3c(nnc3C(F)(F)F)C2)n1	2.89
Cc1onc(-c2ccncc2)c1C(=O)NC1CCCOC1 (configuration not stated)	-9.07
O=C(NCCNc1ccccn1)N1CCSCC1	-5.96

Ask: Query (compound): Cc1[nH]ncc1C(C)NCc1ccc(F)cc1 (configuration not stated) ; field requested: cytotoxicity at 70.5 h
Reply: -1.27

Ask: Moving on to the next compound: CC(=O)N1CCN(CCNc2ncc(Br)cc2C)CC1
Reply: -1.98

Ask: Moving on to the next compound: N#CC1(C(=O)N2CCN(c3nccs3)CC2)CCCCC1
Reply: -10.1

Ask: Moving on to the next compound: COc1c(CNC(c2ccc(F)cc2)c2nccn2C)c(C)nn1C (configuration not stated)
Reply: 45.1

Ask: Moving on to the next compound: CN1C(=O)C2(CCN(CCO)C2)c2ccccc21 (configuration not stated)
Reply: -5.56

Ask: Moving on to the next compound: Cn1ncnc1CCNC(=O)c1cc(Cl)c(Cl)n1C
Reply: -2.76

Ask: Moving on to the next compound: Cn1ccnc1COc1ccc(CN2CCC(C(N)=O)CC2)cc1
Reply: -11.1

###

Reported cytotoxicity at 70.5 h values for the following compounds.
- assay summary: Human HepG2 cell viability assay in 384 well format
- Assay type: toxicity, cell-based
- Set-up: dose 125 nL, time 70.5 hour; concentration not given beside the values
- measurement parameters: HepG2 cells, read-out: Inhibition
Response body: numeric value in %, unit text excluded.

compound	cytotoxicity at 70.5 h [%]
O=C(c1ccccn1)N1CC[C@@H](N2CCOCC2)[C@@H]1Cc1ccccc1	-10.4

Ask: Query (compound): CCCc1ccc(CN2CCC3(CCC(=O)N(C(C)C(=O)O)C3)CC2)o1 (stereo not drawn) ; field requested: cytotoxicity at 70.5 h
Reply: -4.9

###

- assay summary: Human HepG2 cell viability assay in 384 well format
- Assay type: toxicity, cell-based
- Set-up: dose 125 nL, time 70.5 hour; concentration not given beside the values
- measurement parameters: HepG2 cells, read-out: Inhibition
Reported cytotoxicity at 70.5 h values for the following molecules.
Response body: numeric value in %, unit text excluded.

molecule	unit of measurement	cytotoxicity at 70.5 h
COCCN(Cc1ccccn1)C(=O)CC1OCCc2sccc21 (centres undefined)	%	-9.62
Cc1nccn1CC1CCCN1S(=O)(=O)Cc1cccc(F)c1 (centres undefined)	%	18.7
Cc1ccc(C(C(=O)NCCN2CCCCCC2)N(C)C)cc1 (centres undefined)	%	5.23
O=C(NCCCNC(=O)c1cccc(O)c1)Nc1ccc(Cl)cc1	%	-0.328
CC1(C(=O)N2CCOCC2)CN(Cc2c[nH]cn2)CCO1 (centres undefined)	%	-0.532

Ask: Query (molecule): Cc1cc(CNc2ccc3nc(C)sc3c2)no1 ; field requested: cytotoxicity at 70.5 h
Reply: -4.46

Ask: Moving on to the next molecule: CC(C)Cn1cncc1CNC(=O)c1cccc(Cn2cccn2)c1
Reply: -5.12

Ask: Moving on to the next molecule: CN1C(=O)CC(c2ccccc2)C12CCN(CC1CC1)CC2 (centres undefined)
Reply: -11.2

Ask: Moving on to the next molecule: CC(=O)N1CCN(C(=O)c2cnn(-c3ccccc3Cl)c2)CC1
Reply: 3.15

Ask: Moving on to the next molecule: CCCN1CCCC1c1ccc(C(=O)N2CCOCC2)s1 (centres undefined)
Reply: 0.549

Ask: Moving on to the next molecule: Cc1nc(CCCNC(=O)C2CC(=O)N(C(C)(C)C)C2)sc1C (centres undefined)
Reply: -7.69

Ask: Moving on to the next molecule: CNc1ccnc(N2C[C@@H](C)[C@](O)(C3CCC3)C2)n1
Reply: 26

Ask: Moving on to the next molecule: Cc1nc2sccn2c1C(=O)N1CCc2c(nc(N)[nH]c2=O)C1
Reply: -4.21

Ask: Moving on to the next molecule: O=C(CCOc1ccccc1F)N1CCCCC1Cn1cccn1 (centres undefined)
Reply: -4.38

Ask: Moving on to the next molecule: O=C1C[C@H]2CC[C@@H](CN1)N2C1CSCCSC1
Reply: 17.4

Ask: Moving on to the next molecule: Cc1nn(-c2ccccc2)nc1C(=O)NCC(c1ccsc1)N(C)C (centres undefined)
Reply: 13.1

Ask: Moving on to the next molecule: CC1CN(C)CCN1C(=O)c1ccn(-c2ccc(F)cc2)n1 (centres undefined)
Reply: -12.3

Ask: Moving on to the next molecule: Cc1ccc(Oc2ncccc2CNC(=O)C2COC(=O)N2)c(F)c1F (centres undefined)
Reply: -11.2

Ask: Moving on to the next molecule: Oc1cc(-c2cccs2)nc(C2CCCN(CC3=CCCOC3)C2)n1 (centres undefined)
Reply: -9.88

Ask: Moving on to the next molecule: COc1ccc2[nH]cc(C(=O)CNc3nccs3)c2c1
Reply: 14.4

Ask: Moving on to the next molecule: CCN1CC2(CC1=O)CN(C(=O)NC)CCN(S(C)(=O)=O)C2 (centres undefined)
Reply: -6.12

Ask: Moving on to the next molecule: Cc1cccc(NC(=O)N2CCC(CO)(Nc3ccccc3)CC2)c1
Reply: -5.03

Ask: Moving on to the next molecule: Cn1cc(C(=O)CC2CCCN2C(=O)c2coc3ccccc23)cn1 (centres undefined)
Reply: -12.8

Ask: Moving on to the next molecule: CC(C)CCc1nc(CNCC2CCCN2c2cccnn2)cs1 (centres undefined)
Reply: 12.1

###

- assay summary: Human HepG2 cell viability assay in 384 well format
- Type: toxicity, cell-based
- Design: dose 125 nL, time 70.5 hour; concentration not given beside the values
- measurement parameters: HepG2 cells, read-out: Inhibition
Reported cytotoxicity at 70.5 h values for the following compounds.
Response body: numeric value in %, unit text excluded.

Observe how each entry below is paired with its result.
compound	cytotoxicity at 70.5 h, %
O=c1[nH]c(N2CCCCC2)nc2c1CCN(Cc1cccnc1)C2	-6.55
CC(C)(C)c1nnc(CN2CCC(c3cc4ccccc4[nH]3)CC2)o1	17.4
CC(C)c1nc(CN2CCN(Cc3ccccn3)CC2)cs1	-3.18
NC(=O)c1cnn2c1NCC(CNCCOc1ccccc1)C2 (stereo not drawn)	-5.14
COCC(=O)N1CCCCC1c1nc(CN(C)C(C)=O)cc(N(C)C)n1 (stereo not drawn)	50.7

Ask: Query (compound): CCc1ncc(C(=O)N2CCN(C(=O)COc3ccccc3)CC2)cn1 ; field requested: cytotoxicity at 70.5 h
Reply: -3.1

Ask: Moving on to the next compound: CC(C)NC(=O)Nc1ccccc1CN1CCOCC1
Reply: -5.87
